# systemUnderTest: hGLP-1R (Homo sapiens)
# Sequence (P43220 24-463): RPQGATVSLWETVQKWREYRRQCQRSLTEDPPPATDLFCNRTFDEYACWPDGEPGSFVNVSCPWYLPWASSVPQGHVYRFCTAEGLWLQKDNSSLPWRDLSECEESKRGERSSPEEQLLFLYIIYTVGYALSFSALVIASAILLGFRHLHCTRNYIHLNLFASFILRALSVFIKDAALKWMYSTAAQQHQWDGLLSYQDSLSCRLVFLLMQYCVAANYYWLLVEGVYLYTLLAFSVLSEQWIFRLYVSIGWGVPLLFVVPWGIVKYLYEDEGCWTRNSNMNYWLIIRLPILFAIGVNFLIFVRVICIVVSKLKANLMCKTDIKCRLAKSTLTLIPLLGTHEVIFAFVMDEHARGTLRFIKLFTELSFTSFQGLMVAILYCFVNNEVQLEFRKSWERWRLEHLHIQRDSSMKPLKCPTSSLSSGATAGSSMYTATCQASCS
# runDescription: Functional cAMP activity in the presence of 1% HSA
# Assay type: cell-based
# assaySetup: read-out: cAMP Rel EC50, hGLP-1R
Starred links: 1 amine or outer side, 2 acyl side, 3 side chain; linkers in the order of their positions; H or OH if unused. Non-standard residues stand in square brackets, D forms with d. Groups on a side chain read outwards from the residue. No end group written: not given here. *: point of attachment. C20 diacid = O=C(O)CCCCCCCCCCCCCCCCCCC(=O)*; C18 diacid = O=C(O)CCCCCCCCCCCCCCCCC(=O)*; γGlu = O=C(O)[C@H](CCC(=O)[*:2])N[*:1]; αMe4Pal = C[C@](N)(Cc1ccncc1)C(=O)O; αMeY = C[C@](N)(Cc1ccc(O)cc1)C(=O)O; 4Pal = N[C@@H](Cc1ccncc1)C(=O)O; αMeL = CC(C)C[C@](C)(N)C(=O)O; Orn = NCCC[C@H](N)C(=O)O; AEEA = NCCOCCOCC(=O)O; Aib = CC(C)(N)C(=O)O
In this section, each of the substances is paired with its reported pEC50.
Here pEC50 is given on a logarithmic scale as minus log10 of the concentration in mol/L.

(Q) Please look at H-Y[Aib]QGTFTSD[4Pal]SQ[αMeL]LD[Orn]K([dE-γGlu-C18 diacid])AQ[αMe4Pal]AFIE[αMeY]LIE[Aib]GPSSGEPPPSGSEE-NH2 [Example 1103] and tell me its recorded pEC50 on hGLP-1R (Homo sapiens).
(A) 6.74

(Q) GET pEC50 where system = hGLP-1R (Homo sapiens) and item = H-Y[Aib]QGTFTSD[4Pal]SK[αMeL]LDKK([AEEA-γGlu-C18 diacid])AQ[Aib]AFIE[αMe4Pal]LIE[Aib]GPSSGAPPPSGS-NH2 [Example 914]
(A) 7.04

(Q) Give pEC50 for this entry on hGLP-1R (Homo sapiens): H-Y[Aib]QGTFTSDFSK[αMeL]LDKK([AEEA-γGlu-C18 diacid])AQ[Aib]AFIEYLIE[Aib]GESSGAPPPSGE-NH2 [Example 217]
(A) 6.89

(Q) Quote hGLP-1R (Homo sapiens) pEC50 for entry H-Y[Aib]QGTFTSD[4Pal]SQ[αMeL]LDKK([AEEA-γGlu-C18 diacid])AQ[Aib]AFIE[αMeY]LIEGGPSSGAPPPEGS-NH2 [Example 853] .
(A) 6.99

(Q) State the measured pEC50 (hGLP-1R (Homo sapiens)) of Y[Aib]QGTFTSDFSK[αMeL]LDKK([AEEA-γGlu-C20 diacid])AQ[Aib]AFIQWLLEGGPSSGAPPPSEG-NH2 [Example 39]
(A) 6.59
